Target: SARS-COV2 Mpro (Severe acute respiratory syndrome coronavirus 2 (2019-nCoV) (SARS-CoV-2), UniProt P0DTD1)
pIC50: −log10 of the molar value.
pIC50 reference
OBSERVATION_TYPE: pIC50

COMPOUND	OBSERVATION_TYPE	TEST_VALUE
COc1cccc2[nH]c(C(=O)N[C@@H](CC(C)C)C(=O)N[C@@H](C[C@@H]3CCNC3=O)C(C#N)Nc3ccccc3)cc12 (stereo partly drawn) [Compound 327]	pIC50	> 4.66
COc1cccc2[nH]c(C(=O)N[C@@H](CC3CC3)C(=O)N[C@@]3(C#N)CC4CCC3[C@H]3C(=O)NC(=O)[C@@H]43)cc12 (single isomer, unassigned) [489 (Isomer 1)]	pIC50	< 4.52
CC[C@H]1CN(C(=O)c2cc3c(OC)cccc3[nH]2)[C@@H]1C(=O)N[C@H](C#N)C[C@@H]1CCNC1=O [Compound 391]	pIC50	< 4.52
COc1cccc2[nH]c(C(=O)N[C@@H](CC(C)C)C(=O)N[C@H](C#N)Cc3cncn3C)cc12 [Compound 225]	pIC50	< 4.52
N#CC1(NC(=O)[C@H](CC2CC2)NC(=O)OCc2ccccc2)C[C@H]2CC[C@@H]1[C@H]1C(=O)NC(=O)[C@@H]21 (single isomer, unassigned) [495 (Isomer 1)]	pIC50	< 4.52
COc1nccc2[nH]c(C(=O)N[C@@H](CC3CC3)C(=O)N[C@H](C#N)C[C@@H]3CCCNC3=O)cc12 [Compound 623]	pIC50	< 4.52

---

pIC50 reference
Biological target: 229E mPRO (Human coronavirus 229E (HCoV-229E), UniProt P0C6X1)
Sequence (P0C6X1 2966-3267 limits assumed): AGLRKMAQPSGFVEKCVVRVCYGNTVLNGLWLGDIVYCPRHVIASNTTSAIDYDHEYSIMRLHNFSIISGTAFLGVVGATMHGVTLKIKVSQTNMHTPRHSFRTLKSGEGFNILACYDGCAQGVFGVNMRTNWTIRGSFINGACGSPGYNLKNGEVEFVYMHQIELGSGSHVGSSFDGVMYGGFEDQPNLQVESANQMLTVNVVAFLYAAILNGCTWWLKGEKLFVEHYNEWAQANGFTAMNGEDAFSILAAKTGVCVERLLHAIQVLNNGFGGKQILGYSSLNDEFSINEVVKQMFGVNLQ
Assay: 229E mPRO enzymatic assay
Format: biochemical, Human Coronavirus (HCov) 229E
Conditions: read-out: 229E mPRO IC50
pIC50: −log10 of the molar value.

COMPOUND	pIC50
COc1cccc2[nH]c(C(=O)N3CC4(CCOCC4)CC3C(=O)N[C@H](C#N)C[C@@H]3CCNC3=O)cc12 (stereo partly drawn)	< 4.52
COc1cccc2[nH]c(C(=O)N[C@H](CN[C@H](C#N)C[C@@H]3CCNC3=O)CC(C)(C)C)cc12	< 4.52
CC(C)C[C@H](NC(=O)c1cc2c(OC(F)F)cccc2[nH]1)C(=O)N[C@H](C#N)C[C@@H]1CCNC1=O	> 4.66
COc1cccc2[nH]c(C(=O)N[C@@H](CC(C)C)C(=O)N[C@H](C#N)Cc3cncn3C)cc12	< 4.52
CCCN1C(=N)C([C@H](C[C@@H]2CCNC2=O)NC(=O)[C@H](CC(C)C)NC(=O)c2cc3c(OC)cccc3[nH]2)OC1=O (stereo partly drawn)	5.00 to 5.70
COc1cccc2[nH]c(C(=O)N[C@@H](CC(C)C)C(=O)N[C@@H](C[C@@H]3CCNC3=O)C(C#N)N3CCCC3)cc12 (single isomer, unassigned) [331 (Isomer 1)]	> 4.66

---

Molecular target: 229E mPRO (Human coronavirus 229E (HCoV-229E), UniProt P0C6X1)
Assay: 229E mPRO enzymatic assay
Type: biochemical, Human Coronavirus (HCov) 229E
Settings: 229E mPRO IC50 (μM)
OBSERVATION_TYPE: IC50

                                   molecule  test_value
0  CC(C)C[C@H](NC(=O)CC(C)(O)c1ccc(Cl)cc1)C(=O)N[C@H](C#N)C[C@@H]1CCNC1=O (single isomer, unassigned) [365 (Isomer 1)]  2 to 10 µM
